I'd appreciate it if you could supply log10 of Activity values for the items below.
- System: Hepatitis C virus
- PROCEDURE DETAILS: Antiviral activity against HCV infected in human hepatoma cells by replicon assay
- Assay type: functional, Hepacivirus hominis
All values: log10 Activity [nM].

Qu. What value of log10 of Activity has been recorded for this entry: CC(C)[C@H](N)C(=O)O[C@@H]1[C@@H](CO)O[C@@H](n2ccc(N)nc2=O)[C@]1(C)O [VALOPICITABINE]
Ans. 3.88

Qu. Also CC(C)(C)C(=O)OCCNP(=O)(OC[C@H]1O[C@@H](n2ccc(N)nc2=O)[C@](C)(O)[C@@H]1O)Oc1ccccc1 (stereo partly specified) , if possible.
Ans. 2.35

Qu. Also CC(C)C(=O)OCC(Cc1ccccc1)NP(=O)(OC[C@H]1O[C@@H](n2ccc(N)nc2=O)[C@](C)(O)[C@@H]1O)Oc1ccccc1 (stereo partly specified) , if possible.
Ans. 2.96

Qu. Also CCCC(CCC)C(=O)OCCNP(=O)(OC[C@H]1O[C@@H](n2ccc(N)nc2=O)[C@](C)(O)[C@@H]1O)Oc1ccccc1 (stereo in doubt; 10a) , if possible.
Ans. 2.65

Qu. Also CCC(CC)C(=O)OCCNP(=O)(OC[C@H]1O[C@@H](n2ccc(N)nc2=O)[C@](C)(O)[C@@H]1O)Oc1ccccc1 (stereo in doubt; 9b) [DIASTEREOMERIC MIX] , if possible.
Ans. 2.80

Qu. Also C[C@@]1(O)[C@H](O)[C@@H](COP(=O)(NCCOC(=O)C2CCCCCC2)Oc2ccccc2)O[C@H]1n1ccc(N)nc1=O (stereo partly specified) , if possible.
Ans. 3.06
